experimental system: T1, recombinant gp120 of HIV-1 strain IIIb (HIV-1 strain IIIb, UniProt P04578 33-511)
T1 construct: domain: gp120; also called IIIb-derived gp120; gp 120 (IIIB strain)
test description: SPR BIAcore, gp120 on chip;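 also: fab fragments flowed at 0.5 to 10 ug/ml over immobilized gp120, resonance units tracked during association and dissociation, equilibrium constants derived from the rate constants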
pKd: −log10 of the molar value.
1 (yes) means recorded pKd is 10 or above; 0 (no) means it is below 10.

composite Fab H101/4L-1 (Fab, V domains shown) VH: LEQSGAEVKKPGASVKVSCQASGYRFSHFTVHWVRQAPGQRFEWHGWINPYNGNKEFSAKFQDRVTFTADTSANTAYMELRSLRSADTAVYYCARVGEWGWHQRRYDNYYMDVWGKGTTVIVSS VL: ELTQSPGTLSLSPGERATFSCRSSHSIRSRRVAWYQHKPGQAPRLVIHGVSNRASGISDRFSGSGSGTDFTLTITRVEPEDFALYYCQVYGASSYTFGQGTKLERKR = 0 (no)

Lab note: next binder to report on.
Does pKd meet or surpass 10 for composite Fab H31/4L-14 (Fab, V domains shown) VH: LEQSGAEVKKPGASVKVSCQASGYRFSHFTVHWVRQAPGQRFEWHGWINPYNGNKEFSAKFQDRVTFTADTSANTAYMELRSLRSADTAVYYCARVGEWGWEMFRYDNYYMDVWGKGTTVIVSS VL: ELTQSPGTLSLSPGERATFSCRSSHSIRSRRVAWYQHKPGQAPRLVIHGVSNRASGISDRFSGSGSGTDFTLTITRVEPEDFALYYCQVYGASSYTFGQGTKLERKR ?
1 (yes)
